System: 966289-007-R4-J1-PDC complex spheroid viability;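 also: spheroids exposed to agents for one week before readout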
test_details: Anticancer human tumor 966289-007-R4-J1-PDC patient-derived pancreatic adenocarcinoma cell line growth inhibition [RAS]; active = viability on the fitted dose curve at most 10% of control; inactive = the rest
applied_conditions: second compound 0.3 µM; first compound 1 µM
Labels: true (active), false (inactive)

INSERT INTO assay_data (compound, qualitative_label) VALUES
  ('CC(=O)OC12COC1CC(O)C1(C)C(=O)C(O)C3=C(C)C(OC(=O)C(O)C(NC(=O)OC(C)(C)C)c4ccccc4)CC(O)(C(OC(=O)c4ccccc4)C21)C3(C)C (configuration not stated) + CCn1c(-c2cccnc2C(C)OC)c2c3cc(ccc31)N1CCOC(CC(NC(=O)C(C(C)C)N(C)C(=O)C3(F)CCN(C(=O)C#CC(C)(C)N(C)C)CC3)C(=O)N3CCCC(N3)C(=O)OCC(C)(C)C2)C1', 'true'),
  ('CCC(CC)c1cc(NC2CCC(N)C2)n2nccc2n1 (configuration not stated) + CCn1c(-c2cc(N3CCN(C)CC3)cnc2C(C)OC)c2c3cc(ccc31)-c1csc(n1)CC(NC(=O)C1CC1C)C(=O)N1CCCC(N1)C(=O)OCC(C)(C)C2', 'false');
